Assay summary: Next Generation Impactor (NGI) testing of pMDI prototype formulations
Assay type: physicochemical
Condition: Formulation 2
I'd be grateful if you could share measured MMAD for these entries.
One number for each entry, in µm.

Worked examples follow.
[[record]]
molecule = "C[N+]1(C)CCC(OC(=O)C(O)(c2ccccc2)C2CCCC2)C1 (stereo not shown) [Glycopyrronium, glycopyrronium, reference compound]"
quantity_unit = "µm"
test_result = 5.15

[[record]]
molecule = "CCCCCc1cc(O)c(C/C=C(\\C)CCC=C(C)C)c(O)c1"
quantity_unit = "µm"
test_result = 4.65

[[record]]
molecule = "CCCCCc1cc(O)c2c(c1)OC(C)(C)c1ccc(C)cc1-2"
quantity_unit = "µm"
test_result = 4.4


Please look at the following molecule next.
Query string: Could you share which MMAD value was measured for C=C(C)[C@@H]1CCC(C)=C[C@H]1c1c(O)cc(CCCCC)cc1O [CBD, cannabidiol, reference compound] ?
Result string: 4.5

----------
I'd be grateful if you could share measured Actual Emitted dose for these entries.
Assay summary: Next Generation Impactor (NGI) testing of pMDI prototype formulations
Assay type: physicochemical
Condition: Formulation 3; Throat stage to MOC
Give bare numbers, in µg.

Worked examples follow.
[[record]]
compound = "CCCCCc1cc(O)c(C/C=C(\\C)CCC=C(C)C)c(O)c1 [CBG, cannabigerol]"
readout_kind = "Actual Emitted dose"
quantity_unit = "µg"
test_result = 331.6

[[record]]
compound = "C=C(C)[C@@H]1CCC(C)=C[C@H]1c1c(O)cc(CCC)cc1O [CBDV, cannabidivarin]"
readout_kind = "Actual Emitted dose"
quantity_unit = "µg"
test_result = 272.0

[[record]]
compound = "C=C(C)[C@@H]1CCC(C)=C[C@H]1c1c(O)cc(CCCCC)cc1O [CBD, cannabidiol, reference compound]"
readout_kind = "Actual Emitted dose"
quantity_unit = "µg"
test_result = 303.0


Please look at the following compound next.
Query string: Could you share which Actual Emitted dose value was measured for C[N+]1(C)CCC(OC(=O)C(O)(c2ccccc2)C2CCCC2)C1 (stereo not shown) [Glycopyrronium, glycopyrronium, reference compound] ?
Result string: 28.6

----------
Assay summary: Next Generation Impactor (NGI) testing of pMDI prototype formulations
Format: physicochemical
Condition: Formulation 4
I'd be grateful if you could share measured GSD for these entries.
Give bare numbers.

Worked examples follow.
[[record]]
molecule = "CCCCCc1cc(O)c(C/C=C(\\C)CCC=C(C)C)c(O)c1"
test_result = 3

[[record]]
molecule = "CCCCCc1cc(O)c2c(c1)OC(C)(C)c1ccc(C)cc1-2"
test_result = 3


Please give GSD for each item listed below.
1. C=C(C)[C@@H]1CCC(C)=C[C@H]1c1c(O)cc(CCC)cc1O
2. C[N+]1(C)CCC(OC(=O)C(O)(c2ccccc2)C2CCCC2)C1 (stereo not drawn) [Glycopyrronium, glycopyrronium, reference compound]
3. CCCCCc1cc(O)c2c(c1)OC(C)(CCC=C(C)C)C=C2 (stereo not drawn)
4. C=C(C)[C@@H]1CCC(C)=C[C@H]1c1c(O)cc(CCCCC)cc1O [CBD, cannabidiol, reference compound]

Result string:
1. 3
2. 2
3. 3
4. 3

----------
Assay summary: Next Generation Impactor (NGI) testing of pMDI prototype formulations
Type: physicochemical
Condition: Formulation 3
Readout kind: GSD
Answers are plain numbers.

[[record]]
compound = "CCCCCc1cc(O)c(C/C=C(\\C)CCC=C(C)C)c(O)c1 [CBG, cannabigerol]"
readout_kind = "GSD"
test_result = 3

[[record]]
compound = "C=C(C)[C@@H]1CCC(C)=C[C@H]1c1c(O)cc(CCCCC)cc1O [CBD, cannabidiol, reference compound]"
readout_kind = "GSD"
test_result = 3

[[record]]
compound = "C[N+]1(C)CCC(OC(=O)C(O)(c2ccccc2)C2CCCC2)C1 (stereo not shown) [Glycopyrronium, glycopyrronium, reference compound]"
readout_kind = "GSD"
test_result = 2


Please look at the following compound next.
Query string: Could you share which GSD value was measured for C=C(C)[C@@H]1CCC(C)=C[C@H]1c1c(O)cc(CCC)cc1O [CBDV, cannabidivarin] ?
Result string: 3
